test system: rodent lifetime carcinogenesis bioassay, tumor incidence TD50; assay: carcinogenic potency in animals, long-term in vivo studies, CPDB compilation (AID 1745844); conditions: rat; strain Fischer 344/Mai fBR; males; inhaled; site: brain; lesion: several types; types named in the paper; dosed 105 weeks; study length 108 weeks
measurement-label: TD50

Looking up `C1CO1` , I found its TD50 recorded as 70.7 mg/kg/day

---

test system: rodent lifetime carcinogenesis bioassay, tumor incidence TD50; assay: carcinogenic potency in animals, long-term in vivo studies, CPDB compilation (AID 1745844); details: mouse; strain Swiss albino; females; in drinking water; site: liver; lesion: several types; types named in the paper; dosed 94 weeks; study length 94 weeks
measurement-label: TD50
Just the number plus its unit, please.

compound-smiles | TD50
CC(=O)NNC(=O)c1ccncc1 | 55700 mg/kg/day

Next compound, TD50 to be filled in.
Bench note, rodent lifetime carcinogenesis bioassay, tumor incidence TD50: entry `CCCCCNN` , its TD50 = 223 mg/kg/day

---

tested on: rodent lifetime carcinogenesis bioassay, tumor incidence TD50; assay: carcinogenic potency in animals, long-term in vivo studies, CPDB compilation (AID 1745844); details: mouse; strain Swiss; females; in feed; site: liver; lesion: hepatoma; dosed 65 weeks; study length 65 weeks
measurement-label: TD50

Looking up `CC(N)=S` , I found its TD50 recorded as 5.36 mg/kg/day

---

tested on: rodent lifetime carcinogenesis bioassay, tumor incidence TD50; experiment: carcinogenic potency in animals, long-term in vivo studies, CPDB compilation (AID 1745844); details: mouse; strain ICI; females; by gavage; site: lung; lesion: one or several types; types not named; dosed 80 weeks; study length 96 weeks
Calls of active or inactive are those of the source. How the calls were made is not given here.
measurement-label: TD50

Looking up `ClC(Cl)Cl` , I found its TD50 recorded as 316 mg/kg/day (inactive)

---

system: rodent lifetime carcinogenesis bioassay, tumor incidence TD50; assay: carcinogenic potency in animals, long-term in vivo studies, CPDB compilation (AID 1745844); conditions: mouse; strain CD-1 HaM/ICR; females; in feed; site: lung; lesion: several types; types named in the paper; dosed 68 weeks; study length 94 weeks
Active and inactive are the calls of the source. No rule for the calls is given here.
measurement-label: TD50

Looking up `Cc1ccc(C)c(N)c1` , I found its TD50 recorded as 1290 mg/kg/day (inactive)

---

test system: rodent lifetime carcinogenesis bioassay, tumor incidence TD50; experiment: carcinogenic potency in animals, long-term in vivo studies, CPDB compilation (AID 1745844); conditions: mouse; strain CF-1; males; in feed; site: lung; lesion: several types; types named in the paper; dosed 123 weeks; study length 123 weeks
measurement-label: TD50

Bench note, rodent lifetime carcinogenesis bioassay, tumor incidence TD50: entry `Clc1ccc(C(c2ccc(Cl)cc2)C(Cl)Cl)cc1` , its TD50 = 24.9 mg/kg/day

---

tested on: rodent lifetime carcinogenesis bioassay, tumor incidence TD50; assay: carcinogenic potency in animals, long-term in vivo studies, CPDB compilation (AID 1745844); conditions: rat; strain Fischer 344; females; in drinking water; site: tongue; lesion: squamous-cell papilloma; dosed 45 weeks; study length 126 weeks
measurement-label: TD50 (mg/kg/day)
Express your answer in mg/kg/day, writing the number without its unit.

Looking up `O=NN1CCOCC1` , I found its TD50 recorded as 50.2

---

system: rodent lifetime carcinogenesis bioassay, tumor incidence TD50; assay: carcinogenic potency in animals, long-term in vivo studies, CPDB compilation (AID 1745844); details: rat; strain Fischer 344; males; in drinking water; site: kidney; lesion: several types; types named in the paper; dosed 110 weeks; study length 111 weeks
measurement-label: TD50

Looking up `[O-][Br+2]([O-])O` , I found its TD50 recorded as 9.62 mg/kg/day
